Target: UniProtKB P08581
Sequence (P08581 whole entry): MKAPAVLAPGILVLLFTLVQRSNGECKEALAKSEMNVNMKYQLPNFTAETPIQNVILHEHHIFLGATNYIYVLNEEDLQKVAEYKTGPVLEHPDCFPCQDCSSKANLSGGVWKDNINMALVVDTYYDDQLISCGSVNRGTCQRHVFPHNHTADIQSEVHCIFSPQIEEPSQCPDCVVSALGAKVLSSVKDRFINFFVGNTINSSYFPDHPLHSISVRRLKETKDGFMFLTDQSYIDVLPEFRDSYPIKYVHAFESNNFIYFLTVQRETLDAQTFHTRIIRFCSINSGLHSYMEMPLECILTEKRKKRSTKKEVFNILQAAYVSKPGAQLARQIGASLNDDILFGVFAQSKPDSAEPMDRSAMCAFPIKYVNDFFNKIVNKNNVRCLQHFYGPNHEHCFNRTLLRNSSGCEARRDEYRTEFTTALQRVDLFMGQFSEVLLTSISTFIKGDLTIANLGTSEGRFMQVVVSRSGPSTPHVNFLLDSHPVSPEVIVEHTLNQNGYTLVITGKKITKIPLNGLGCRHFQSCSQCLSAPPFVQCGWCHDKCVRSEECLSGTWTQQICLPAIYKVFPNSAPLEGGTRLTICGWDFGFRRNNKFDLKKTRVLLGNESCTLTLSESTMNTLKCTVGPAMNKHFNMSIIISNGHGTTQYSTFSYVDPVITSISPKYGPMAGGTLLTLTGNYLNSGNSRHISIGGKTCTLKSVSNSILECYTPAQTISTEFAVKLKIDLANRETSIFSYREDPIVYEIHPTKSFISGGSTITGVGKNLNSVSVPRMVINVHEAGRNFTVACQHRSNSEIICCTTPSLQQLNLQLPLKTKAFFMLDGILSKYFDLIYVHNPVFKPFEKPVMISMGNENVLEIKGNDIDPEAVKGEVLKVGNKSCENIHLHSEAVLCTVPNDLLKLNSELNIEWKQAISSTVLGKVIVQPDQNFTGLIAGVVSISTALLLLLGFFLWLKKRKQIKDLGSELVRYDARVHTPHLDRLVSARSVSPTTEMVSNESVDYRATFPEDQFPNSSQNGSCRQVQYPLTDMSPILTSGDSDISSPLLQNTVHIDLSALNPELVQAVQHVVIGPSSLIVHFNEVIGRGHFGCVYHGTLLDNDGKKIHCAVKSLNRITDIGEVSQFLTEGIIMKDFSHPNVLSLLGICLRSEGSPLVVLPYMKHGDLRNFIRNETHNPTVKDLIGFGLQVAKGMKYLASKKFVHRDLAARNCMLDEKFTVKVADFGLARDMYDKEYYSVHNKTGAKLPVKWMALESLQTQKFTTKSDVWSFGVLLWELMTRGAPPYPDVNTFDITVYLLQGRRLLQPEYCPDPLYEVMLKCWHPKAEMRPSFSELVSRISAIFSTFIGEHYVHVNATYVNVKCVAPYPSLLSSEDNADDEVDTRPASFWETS
pKi: −log10 of the molar value.
measurement.name: pKi

Input: pKi of `CC(=O)Nc1cc(N)c(C#N)c(-c2ccccc2)n1` on UniProtKB P08581?
Output: < 5.54

* * *

Record form. Attribute: IC50. Fill in for each entry.
Target: Mitogen-activated protein kinase 9 (Homo sapiens, UniProt P45984)
Sequence (P45984 whole entry): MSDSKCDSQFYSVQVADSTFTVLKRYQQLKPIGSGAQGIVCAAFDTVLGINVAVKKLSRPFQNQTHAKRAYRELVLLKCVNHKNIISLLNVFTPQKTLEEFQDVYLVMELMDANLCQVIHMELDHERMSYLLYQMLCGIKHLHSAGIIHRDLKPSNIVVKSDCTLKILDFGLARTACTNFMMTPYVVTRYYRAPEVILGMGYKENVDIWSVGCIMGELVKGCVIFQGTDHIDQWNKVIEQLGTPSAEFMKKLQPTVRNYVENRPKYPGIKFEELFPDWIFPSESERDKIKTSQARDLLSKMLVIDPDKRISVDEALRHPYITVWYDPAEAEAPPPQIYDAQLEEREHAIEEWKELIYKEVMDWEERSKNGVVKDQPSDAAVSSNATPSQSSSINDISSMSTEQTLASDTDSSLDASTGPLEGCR
Test: Inhibition of JNK2-mediated ATF2 phosphorylation
Numbers only, in nM.

Solved entries (count: 5):
>  <molecule>
CCOc1nc(NC(=O)CN2CCC(C(=O)NC(C)C)CC2)cc(N)c1C#N

>  <IC50 [nM]>
130

$$$$
>  <molecule>
CCOc1nc(NC(=O)Cc2ccc(Cl)cc2)cc(N)c1C#N

>  <IC50 [nM]>
610

$$$$
>  <molecule>
CC(=O)Nc1cc(N)c(C#N)c(NC(C)C)n1

>  <IC50 [nM]>
3000

$$$$
>  <molecule>
CCOc1nc(NC(=O)Cc2cccc(C)c2)cc(N)c1C#N

>  <IC50 [nM]>
790

$$$$
>  <molecule>
CCOc1nc(NC(=O)C(C)C)cc(N)c1C#N

>  <IC50 [nM]>
8400

$$$$

Please give IC50, item by item, for the list that follows.
1. CCOc1nc(NC(=O)Cc2cc(OC)c(Br)cc2OC)cc(N)c1C#N
2. CCOc1nc(NC(=O)CC(C)C)cc(N)c1C#N
3. CCCCC(=O)Nc1cc(N)c(C#N)c(OCC)n1
4. CCCCOc1nc(NC(C)=O)cc(N)c1C#N
5. CC(=O)Nc1cc(N)c(C#N)c(OC2CCOC2)n1 (stereo not given)
6. CCOc1nc(NC(=O)Cc2cc(OC)c(NC(C)=O)cc2OC)cc(N)c1C#N

Output:
1. 160
2. 3500
3. 690
4. 4660
5. 2900
6. 26

Please give IC50, item by item, for the list that follows.
1. COCCOc1nc(NC(=O)Cc2cc(OC)ccc2OC)cc(N)c1C#N
2. CCOc1nc(NC(=O)Cc2cccc(OC)c2)cc(N)c1C#N
3. CCOc1nc(NC(=O)CN2CCOCC2)cc(N)c1C#N

Output:
270
310
1200

Values compiled from ChEMBL document CHEMBL1148638.
